log10 of IC50 listing for selected molecules.
Biological target: EGFR (d746-750) (Homo sapiens (Human), UniProt P00533, DEL746-750)
Assay: Biochemical EGFR inhibition assay, EGFR (d746-750)
Settings: Caliper mobility shift; 1.0 mM ATP or ATP Km; read-out: Enz EGFR_Exon19-del746-750 IC50
All values: log10 IC50 [nM].

Please review the following examples before continuing.
[
  {
    "molecule": "COc1cc2ncnc(-c3cn(C)nc3-c3ccc(F)cc3)c2cc1NC(=O)C1(CN(C)C)CC1",
    "experimental result": 0.18
  },
  {
    "molecule": "COc1cc2ncnc(-c3cn(C)nc3-c3ccccc3)c2cc1NC(=O)C1CC1",
    "experimental result": 0.00
  },
  {
    "molecule": "COc1cc2ncnc(-c3cn(CC(F)(F)F)nc3-c3ccccc3)c2cc1OC(=O)N1CCN(C)C[C@@H]1C",
    "experimental result": 0.56
  }
]

Here is another molecule to look at.
# input Can you share its log10 of IC50? I mean this molecule: "CCC(=O)Nc1cc2c(-c3cnn(C4COC4)c3-c3ccccc3)ncnc2cc1OC"
# output 1.52

----------
Biological target: EGFR L858R (Homo sapiens (Human), UniProt P00533, L858R)
Sequence (P00533 25-1210 L858R): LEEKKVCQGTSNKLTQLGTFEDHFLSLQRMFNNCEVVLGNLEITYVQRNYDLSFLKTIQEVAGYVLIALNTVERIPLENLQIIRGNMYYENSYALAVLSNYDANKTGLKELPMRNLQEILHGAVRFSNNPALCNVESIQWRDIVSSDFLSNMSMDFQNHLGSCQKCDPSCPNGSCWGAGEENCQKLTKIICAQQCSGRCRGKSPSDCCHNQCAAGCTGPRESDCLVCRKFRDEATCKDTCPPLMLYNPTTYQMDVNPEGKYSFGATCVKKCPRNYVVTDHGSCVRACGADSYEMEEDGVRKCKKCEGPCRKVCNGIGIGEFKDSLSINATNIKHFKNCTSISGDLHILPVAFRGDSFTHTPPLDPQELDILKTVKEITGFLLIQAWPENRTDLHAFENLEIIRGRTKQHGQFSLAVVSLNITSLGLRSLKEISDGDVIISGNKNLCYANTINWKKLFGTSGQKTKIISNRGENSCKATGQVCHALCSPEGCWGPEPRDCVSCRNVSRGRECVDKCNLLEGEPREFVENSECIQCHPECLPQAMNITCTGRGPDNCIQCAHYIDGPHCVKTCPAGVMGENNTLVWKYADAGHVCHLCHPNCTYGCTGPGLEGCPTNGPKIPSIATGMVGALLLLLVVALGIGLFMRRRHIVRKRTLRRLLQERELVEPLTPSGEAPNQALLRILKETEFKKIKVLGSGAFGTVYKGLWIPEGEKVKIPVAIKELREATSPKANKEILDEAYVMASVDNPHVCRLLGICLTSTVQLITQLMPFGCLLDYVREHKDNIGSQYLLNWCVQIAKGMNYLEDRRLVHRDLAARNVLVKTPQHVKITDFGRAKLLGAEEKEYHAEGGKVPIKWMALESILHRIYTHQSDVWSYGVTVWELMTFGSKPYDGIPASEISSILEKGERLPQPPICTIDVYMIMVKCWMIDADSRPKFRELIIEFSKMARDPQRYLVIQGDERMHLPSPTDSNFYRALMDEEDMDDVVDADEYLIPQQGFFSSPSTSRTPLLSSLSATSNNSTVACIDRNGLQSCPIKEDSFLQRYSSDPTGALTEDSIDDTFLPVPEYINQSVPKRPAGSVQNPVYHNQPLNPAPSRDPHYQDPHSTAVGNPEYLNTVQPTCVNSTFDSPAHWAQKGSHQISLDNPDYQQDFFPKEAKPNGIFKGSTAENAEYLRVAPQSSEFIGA
Assay: Biochemical EGFR inhibition assay, EGFR L858R
Settings: Caliper mobility shift; 1.0 mM ATP or ATP Km; read-out: Enz EGFR_L858R IC50
result type: IC50 (nM)
Write the answer as a number in nM, unit excluded.

[
  {
    "compound": "COc1cc2ncnc(-c3cn(C)nc3-c3c(F)cccc3F)c2cc1NC(=O)C1CC1",
    "unit symbol": "nM",
    "IC50": 1.9
  }
]

# input Give the measured IC50 of CCOc1cc2ncnc(-c3cn(C)nc3-c3ccccc3F)c2nc1NC(=O)[C@]12C[C@H]1CN(C)C2 (single isomer, unassigned) .
# output 53

# input Any idea what its IC50 is? The compound is "CCCn1cc(-c2ncnc3cc(OC)c(NC(=O)c4ccc(C5CC5)nc4)cc23)c(-c2ccccc2)n1"
# output 2.7

# input Entry COc1cc2ncnc(-c3cn(C)nc3-c3ccccc3)c2cc1NC(=O)N1CCO[C@@H]2C[C@@H]21 (stereo in doubt) : reported IC50 = ?
# output 2.1

# input What measured IC50 goes with "COc1cc2ncnc(-c3cn(C)nc3-c3ccccc3)c2nc1NC(=O)[C@H](C)N(C)C" ?
# output 9.3

# input Look up IC50: "CCN1CCN(C(=O)Oc2cc3c(-c4cn(C)nc4-c4ccccc4)ncnc3cc2OC)[C@@H](C)C1"
# output 3.6

# input Query: IC50; subject: COc1cc2ncnc(-c3cn(C)nc3-c3ccccc3)c2cc1NC(=O)[C@H](C)N(C)C (single isomer, unassigned) [Example 236]
# output 3.8

# input // lookup IC50 for COc1cc2ncnc(-c3cn(C)nc3-c3ccccc3)c2cc1-c1cc2c[nH]nc2cc1C [Example 146]
# output 8.2

----------
Biological target: pEGFR (Tyr1068) in PC-9 cells (Ex19Del) (Homo sapiens (Human), UniProt P00533, DEL746-750)
Sequence (P00533 other isoform, or with tags, fused parts or gaps del 746-750): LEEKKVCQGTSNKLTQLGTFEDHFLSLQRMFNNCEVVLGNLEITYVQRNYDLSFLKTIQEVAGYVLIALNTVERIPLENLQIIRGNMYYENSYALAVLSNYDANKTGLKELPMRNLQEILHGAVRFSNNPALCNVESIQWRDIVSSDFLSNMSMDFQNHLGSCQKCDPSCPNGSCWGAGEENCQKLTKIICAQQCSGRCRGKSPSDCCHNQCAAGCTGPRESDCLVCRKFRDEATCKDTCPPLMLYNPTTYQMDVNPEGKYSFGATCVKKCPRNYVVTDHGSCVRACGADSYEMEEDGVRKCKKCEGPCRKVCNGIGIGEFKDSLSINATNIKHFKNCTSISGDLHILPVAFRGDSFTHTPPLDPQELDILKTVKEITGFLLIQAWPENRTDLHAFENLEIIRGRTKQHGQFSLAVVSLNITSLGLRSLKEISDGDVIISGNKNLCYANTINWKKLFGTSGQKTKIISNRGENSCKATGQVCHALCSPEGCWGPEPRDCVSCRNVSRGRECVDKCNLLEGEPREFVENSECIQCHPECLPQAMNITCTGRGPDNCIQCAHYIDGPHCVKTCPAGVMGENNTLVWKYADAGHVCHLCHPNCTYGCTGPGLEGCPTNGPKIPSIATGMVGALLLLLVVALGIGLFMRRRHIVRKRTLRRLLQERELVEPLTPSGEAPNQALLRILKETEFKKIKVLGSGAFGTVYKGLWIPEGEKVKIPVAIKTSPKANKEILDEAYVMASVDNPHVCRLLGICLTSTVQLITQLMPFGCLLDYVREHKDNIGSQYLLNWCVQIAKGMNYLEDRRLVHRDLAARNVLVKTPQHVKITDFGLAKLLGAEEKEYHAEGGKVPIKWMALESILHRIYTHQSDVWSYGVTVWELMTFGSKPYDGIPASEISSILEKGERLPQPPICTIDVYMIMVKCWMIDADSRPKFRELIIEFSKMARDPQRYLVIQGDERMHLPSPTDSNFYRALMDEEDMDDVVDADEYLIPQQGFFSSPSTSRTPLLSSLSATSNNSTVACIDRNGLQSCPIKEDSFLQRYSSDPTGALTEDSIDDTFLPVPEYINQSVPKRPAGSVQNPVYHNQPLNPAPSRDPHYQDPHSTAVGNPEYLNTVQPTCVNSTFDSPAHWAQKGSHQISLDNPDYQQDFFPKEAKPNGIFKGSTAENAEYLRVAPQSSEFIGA
Assay: PC-9 pEGFR AlphaLISA assay
Conditions: 4 hours incubation, p-EGFR (Tyr1068) AlphaLISA, read-out: Ext pEGFR_PC-9 Ex19Del IC50
result type: IC50

Example results:
[
  {
    "compound": "C[C@@H](O)c1cc2c(-c3cn(CC(F)F)nc3-c3ccccc3)ncnc2cc1O[C@H]1CCOC1 (single isomer, unassigned)",
    "result type": "IC50",
    "experimental result": "6 nM"
  },
  {
    "compound": "COc1cc2ncnc(-c3c[nH]nc3-c3ccccc3)c2nc1NC(=O)C1(C(F)(F)F)CC1",
    "result type": "IC50",
    "experimental result": "1.5 nM"
  },
  {
    "compound": "CN1C[C@H]2C[C@@]2(C(=O)Nc2nc3c(-c4cn(C)nc4-c4ccccc4)ncnc3cc2OC2CC2)C1",
    "result type": "IC50",
    "experimental result": "3.2 nM"
  },
  {
    "compound": "COc1cc2ncnc(-c3cn(C)nc3-c3c(F)cccc3F)c2cc1NC(=O)C1CC1",
    "result type": "IC50",
    "experimental result": "2.3 nM"
  },
  {
    "compound": "COc1cc2ncnc(-c3cn(C)nc3-c3ccccc3)c2cc1-c1cccc(C(=O)NC2CC2)c1",
    "result type": "IC50",
    "experimental result": "7.1 nM"
  }
]

Consider the record given below.
# input Which value of IC50 has been reported for "CCn1cc(C(=O)Nc2cc3c(-c4cn(CC(F)F)nc4-c4ccccc4)ncnc3cc2OC)cn1" in the records?
# output 0.8 nM
